B1: Pistol ribozyme (parent)
chain: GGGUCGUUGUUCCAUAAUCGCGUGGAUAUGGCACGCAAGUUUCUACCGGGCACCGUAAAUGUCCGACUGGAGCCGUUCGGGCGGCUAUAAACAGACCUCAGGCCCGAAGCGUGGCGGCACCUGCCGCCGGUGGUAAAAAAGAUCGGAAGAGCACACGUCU

- Variants of: B1
- measurement.description: aptazyme ON/OFF ratio, guanine; higher = stronger switching; co-transcriptional cleavage with and without guanine
aptazyme ON/OFF ratio overview
// keep it numeric: no unit symbol after the value

Illustrative cases are given below, each with its answer.
INSERT INTO measurements (variant_label, obs_value) VALUES
  ('U7C U8A U10A U11A C13A', 1.17),
  ('U7A C12U C13U', 1.38),
  ('U8A C12U C13A', 1.28),
  ('U8C G9C U10G U11G C12U C13U', 1.09),
  ('U7C G9A', 1.17);

The reported aptazyme ON/OFF ratio of the variant U8C G9A U10A U11A C13U was 1.28

Notebook: U7A U8C G9U U11C , aptazyme ON/OFF ratio read as 1.1

Reported aptazyme ON/OFF ratio for U7A U8A G9U U10G U11C C13U was 1.02

Per the record, G9C U11A C12U C13A has aptazyme ON/OFF ratio of 1.27

Note to self: aptazyme ON/OFF ratio recorded for U7G U8C G9A U11G C12A C13A was 1.1

aptazyme ON/OFF ratio recorded for this variant, U7G U8G G9U U11G C12A , is 1.32

Measured aptazyme ON/OFF ratio, U7C G9C U11A C12A C13A : 1.08
